Molecular target: human TRPM8 (Homo sapiens)
Construct: A full-length human TRPM8 gene was amplified from human prostatic tissue total RNA
Sequence (Q7Z2W7 whole entry): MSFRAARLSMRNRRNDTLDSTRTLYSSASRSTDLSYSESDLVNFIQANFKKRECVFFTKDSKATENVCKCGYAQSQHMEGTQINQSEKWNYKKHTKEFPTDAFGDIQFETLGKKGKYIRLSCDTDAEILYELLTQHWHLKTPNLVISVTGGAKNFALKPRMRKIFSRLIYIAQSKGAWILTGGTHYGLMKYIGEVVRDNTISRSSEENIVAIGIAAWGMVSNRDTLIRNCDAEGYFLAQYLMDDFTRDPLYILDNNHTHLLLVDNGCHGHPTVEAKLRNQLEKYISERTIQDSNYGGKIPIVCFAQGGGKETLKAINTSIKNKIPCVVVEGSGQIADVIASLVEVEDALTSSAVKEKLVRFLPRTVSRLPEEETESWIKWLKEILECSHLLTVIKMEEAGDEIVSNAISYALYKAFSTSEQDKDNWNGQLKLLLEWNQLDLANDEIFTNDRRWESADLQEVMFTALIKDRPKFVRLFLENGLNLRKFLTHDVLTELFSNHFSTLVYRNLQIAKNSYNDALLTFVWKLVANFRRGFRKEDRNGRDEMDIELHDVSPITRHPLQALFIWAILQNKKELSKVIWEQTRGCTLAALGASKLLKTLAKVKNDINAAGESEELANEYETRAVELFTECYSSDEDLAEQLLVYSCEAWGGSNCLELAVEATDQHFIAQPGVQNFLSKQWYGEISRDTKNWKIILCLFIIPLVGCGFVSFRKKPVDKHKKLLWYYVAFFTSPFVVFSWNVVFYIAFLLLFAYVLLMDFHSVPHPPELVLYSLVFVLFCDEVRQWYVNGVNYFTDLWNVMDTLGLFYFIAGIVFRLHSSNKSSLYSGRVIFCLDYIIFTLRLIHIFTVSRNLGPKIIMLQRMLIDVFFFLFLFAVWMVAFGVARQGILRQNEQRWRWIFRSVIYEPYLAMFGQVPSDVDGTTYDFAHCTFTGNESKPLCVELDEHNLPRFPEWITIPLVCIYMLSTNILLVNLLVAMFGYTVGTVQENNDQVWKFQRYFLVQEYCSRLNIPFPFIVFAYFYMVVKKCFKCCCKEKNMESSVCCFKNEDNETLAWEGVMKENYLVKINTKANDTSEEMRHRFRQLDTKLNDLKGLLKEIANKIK
Assay: TRPM8 activating action, fluorescent calcium imaging in HEK293 cell line stably expressing human TRPM8
Settings: HEK293 cells expressing human TRPM8; Fluo4 calcium imaging at 32° C.; 1 nM to 100 μM; Hill's equation fit
pEC50: −log10 of the molar value.
parameter-measured: pEC50

[[record]]
compound = "C=CCc1cc(OC)c(OC(C)C(OCc2ccccc2)c2ccc(O)c(OC)c2)c(OC)c1 (centres unmarked) [Mixture (30)]"
observed = 6.84

[[record]]
compound = "C=CCc1cc(OC)c(OC(C)C(OCC(C)C)c2ccc(O)c(OC)c2)c(OC)c1 (centres unmarked) [Mixture (25)]"
observed = 6.95

[[record]]
compound = "C=CCc1cc(OC)c(O[C@@H](C)[C@H](OCC)c2ccc(O)c(OC)c2)c(OC)c1 [7R8S-form (1a)]"
observed = 5.91

[[record]]
compound = "C=CCc1cc(OC)c(OC(C)C(OCCCCCCCC)c2ccc(O)c(OC)c2)c(OC)c1 (centres unmarked) [Mixture (27)]"
observed = 7.06

[[record]]
compound = "C=CCc1cc(OC)c(OC(C)C(OC(C)(C)C)c2ccc(O)c(OC)c2)c(OC)c1 (centres unmarked) [Mixture (31)]"
observed = 7.40

